target: Streptavidin (Streptomyces avidinii); assay: streptavidin binders on small-molecule microarray, primary screen, artefact control for SMM compound annotation, biophysical, 635/667 nm fluorescence (AID 1147); settings: streptavidin binding, higher = more signal;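 further: signal reflects streptavidin binding to arrayed compounds as a control protein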
Let's look at some compounds and their measured composite z-score.
MEASUREMENT_KIND: composite z-score

- COMPOUND: "O=c1n(Cc2cc3c(cc2Cl)OCO3)c(=O)n2n1CC[C@@H]1C(=NOCc3ccccc3)[C@H]3O[C@H]3[C@@H](O)[C@@H]12"
  ASSAY_TARGET: "Streptavidin (Streptomyces avidinii)"
  RECORDED_VALUE: 0.767
- COMPOUND: "CCOC(=O)[C@H](Cc1ccccc1)NC(=O)CCC1CC(OC(=O)NCc2ccc3c(c2)OCO3)CC2(CCCC(COC(=O)NCCc3ccccc3OC)O2)O1 (some centres undefined)"
  ASSAY_TARGET: "Streptavidin (Streptomyces avidinii)"
  RECORDED_VALUE: 1.19
- COMPOUND: "CO[C@H]1COC(=O)CCC[C@@H](C)[C@H](OC)COC(=O)[C@@H](C)NC(=O)CC=C[C@@H]1C"
  ASSAY_TARGET: "Streptavidin (Streptomyces avidinii)"
  RECORDED_VALUE: -0.429
- COMPOUND: "C[C@@H]1CC[C@H]2C(=O)O[C@@H](Cc3ccccc3)CN2[C@H]1c1ccc(Br)cc1"
  ASSAY_TARGET: "Streptavidin (Streptomyces avidinii)"
  RECORDED_VALUE: -0.0253

====

assay: anti-His antibody binders, primary screen, artefact control for SMM control protein annotation, biochemical, small-molecule microarray, 635 nm fluorescence (AID 1128); settings: anti-His Alexa647 antibody binding, higher = more signal;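 further: score merges feature fluorescence with signal-to-noise for each printed compound spot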
Label scheme for composite z-score: lower than 0.3 is -1, 0.3 and above is 1.

- COMPOUND: "CCOC(=O)[C@H](Cc1ccccc1)NC(=O)CCC1CC(OC(=O)NCCc2ccc(F)cc2)CC2(CCCC(COC(=O)NCc3ccccc3)O2)O1 (stereo partly specified)"
  DISCRETE_LABEL: 1
- COMPOUND: "CCOC(=O)NN=C1C[C@@H](O)[C@@H](O)[C@@H]2[C@@H]3C(=O)N(c4cccc(Oc5ccccc5)c4)C(=O)[C@@H]3CC[C@@H]12"
  DISCRETE_LABEL: -1
- COMPOUND: "CC(C)CON=C1C[C@@H](O)[C@@H](O)[C@@H]2[C@@H]3C(=O)N(c4ccc(F)cc4F)C(=O)[C@@H]3CC[C@H]12"
  DISCRETE_LABEL: 1
- COMPOUND: "COc1cc(O)c(C(=O)C=Cc2ccc3c(c2)OCO3)c(OC)c1"
  DISCRETE_LABEL: -1
- COMPOUND: "CCN1C(=O)[C@H]2[C@H]3[C@H](O)[C@H](O)CC(=NOC[C@H]4O[C@H](c5ccccc5)C=C[C@@H]4Oc4ccc(OC)cc4)[C@@H]3CC[C@H]2C1=O"
  DISCRETE_LABEL: -1
- COMPOUND: "C=COC[C@@H]1CN2[C@@H](CC[C@@H](C)[C@@H]2c2ccc(Br)cc2)C(=O)O1"
  DISCRETE_LABEL: -1
- COMPOUND: "C=CC[C@@H]1C=C[C@H](ON=C(C)CCC(=O)OC[C@H]2O[C@H](C#Cc3ccccc3)C=C[C@@H]2Oc2ccc(C)cc2)[C@@H](CO)O1"
  DISCRETE_LABEL: -1
- COMPOUND: "COC(=O)[C@H](C)NC(=O)CCC1CC(OC(=O)NCCc2ccc(F)cc2)CC2(CCCC(COC(=O)NCCC(C)C)O2)O1 (stereo partly specified)"
  DISCRETE_LABEL: 1
- COMPOUND: "CO[C@H](C1CCCCC1)[C@H](C)C=CCC(=O)OCCCc1ccccc1"
  DISCRETE_LABEL: 1
- COMPOUND: "COC(=O)[C@H](C)NC(=O)CCC1CC(OC(=O)NCCc2ccc(F)cc2)CC2(CCCC(COC(=O)NCc3cccc(C(F)(F)F)c3)O2)O1 (stereo partly specified)"
  DISCRETE_LABEL: -1
- COMPOUND: "CC(=O)Nc1ccc([C@@H]2N[C@H](C(=O)O)CC[C@H]2C)cc1"
  DISCRETE_LABEL: 1
- COMPOUND: "O=C(NN=C1C[C@@H](O)[C@@H](O)[C@@H]2[C@@H]3C(=O)N(C[C@@H]4CCCO4)C(=O)[C@@H]3CC[C@H]12)OCc1ccccc1"
  DISCRETE_LABEL: -1
- COMPOUND: "O=C1CCCC=C1C(O)CCOC(c1ccccc1)(c1ccccc1)c1ccccc1 (stereo unspecified)"
  DISCRETE_LABEL: -1
- COMPOUND: "CCOC(=O)[C@H](CC(C)C)NC(=O)CCC1CC(OC(=O)NCc2cccc3ccccc23)CC2(CCCC(COC(=O)NCc3ccncc3)O2)O1 (stereo partly specified)"
  DISCRETE_LABEL: 1
- COMPOUND: "CO[C@H]1COC(=O)CC=C[C@H](C)COC(=O)[C@@H](C)NC(=O)CC=C[C@@H]1C"
  DISCRETE_LABEL: 1
- COMPOUND: "O=C1[C@H]2[C@H]3[C@H](O)[C@H](O)CC(=NOCc4ccccc4)[C@@H]3CC[C@H]2C(=O)N1c1ccc(F)cc1F"
  DISCRETE_LABEL: -1
